System: monomeric SARS-CoV-2 RBD (S residues 332-534) with Flag peptide and 8xHis-tag (SARS-CoV-2 (WA1 strain), UniProt P0DTC2 332-534)
Experiment description: SPR
pKd: −log10 of the molar value.
Result type: pKd

Binder	Result type	Reported
Nb 1.16, monomeric nanobody (VHH) VHH: QVQLVESGGGSVQAGGSLRLSCAASGNTSKRKCVGWFRRAPGKEREGVTLIYTVGGSTVYADSVKGRFTISQDNAKDTVYLQMNSLKPEDSAMYYCAAESWGRQCNLETHRFTFWGQGTQVTVSS	pKd	8.44
hcAb 1.26 (Nb 1.26 fused to the human IgG1 hinge and Fc) (Fc fusion) QVQLVESGGGLVQAGGSLRLSCAATGYTWSSVCMGWFRQAPGKEREGVAGIPSGRNRPYYADSVKGRFTISQDNAKNAVFLLMNSLKPEDTAIYYCAPCSAPHDPEYNYWGQGTQVTVSS	pKd	10.10
hcAb 1.16 (Nb 1.16 fused to the human IgG1 hinge and Fc) (Fc fusion) QVQLVESGGGSVQAGGSLRLSCAASGNTSKRKCVGWFRRAPGKEREGVTLIYTVGGSTVYADSVKGRFTISQDNAKDTVYLQMNSLKPEDSAMYYCAAESWGRQCNLETHRFTFWGQGTQVTVSS	pKd	9.60
Nb 2.11, monomeric nanobody (VHH) VHH: QVQLVESGGGSVQAGGSLRLSCAASGDASNRKCVSWFRRAPGKEREGVALIFPVGSSTAYADSVKGRFTISQDSAKDTVYLQMNNLKPEDSGTYYCAAVSWGGRCNLETQTVTFWGQGTQVTVSS	pKd	8.66
